Biological target: T1, human IL-23R extracellular domain Fc-fusion (human, UniProt Q5VWK5 24-355)
T1 construct: extracellular domain; bought; also called IL-23R-Fc
T1 sequence (looked up): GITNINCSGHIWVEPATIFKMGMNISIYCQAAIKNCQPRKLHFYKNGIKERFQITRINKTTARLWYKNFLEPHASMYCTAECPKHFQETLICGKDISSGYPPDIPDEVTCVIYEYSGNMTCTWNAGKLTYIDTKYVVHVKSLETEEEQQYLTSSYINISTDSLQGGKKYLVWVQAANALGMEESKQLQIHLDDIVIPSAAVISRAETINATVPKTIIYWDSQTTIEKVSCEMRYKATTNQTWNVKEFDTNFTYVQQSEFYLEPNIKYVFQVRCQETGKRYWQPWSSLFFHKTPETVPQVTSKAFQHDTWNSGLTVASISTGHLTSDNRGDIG
Assay: competition ELISA, coated IL-23 + IL-23R-Fc
pIC50: −log10 of the molar value.
// reported pIC50 per item
quantity-measured: pIC50

CD4#8-35GS-IL23R#19 (bispecific antibody, also called BI#45; T023200045) EVQLVESGGGSVQPGGSLTLSCGTSGRTFNVMGWFRQAPGKEREFVAAVRWSSTGIYYTQYADSVKSRFTISRDNAKNTVYLEMNSLKPEDTAVYYCAADTYNSNPARWDGYDFRGQGTLVTVSSGGGGSGGGGSGGGGSGGGGSGGGGSGGGGSGGGGSEVQLVESGGGLVQPGGSLTLSCVASGRTFSTDVMGWFRQAPGKEREFVAAHRTSGISTVYAASVKGRFTISRDNAKNTVYLGMKSLKPEDTAVYVCAAGSDASGGYDYWGQGTLVTVSS	8.18
IL23R#20: 150H07 (VHH, bispecifics print NAKNTVY where this entry prints NAKNIVY; also called LG150H07) VHH: EVQLVESGGGLVQAGGSLRLSCAASGRTFSSYAMGWFRQAPGKDREFVAAISWIGESTYYADSVKGRFTISRDNAKNTVYLRMNSLKPEDTAVYYCAADLYYTAYVAAADEYDYWGQGTLVTVSS	7.80
IL23R#19-35GS-CD4#8 (bispecific antibody, also called BI#42; T023200042) EVQLVESGGGLVQPGGSLTLSCVASGRTFSTDVMGWFRQAPGKEREFVAAHRTSGISTVYAASVKGRFTISRDNAKNTVYLGMKSLKPEDTAVYVCAAGSDASGGYDYWGQGTLVTVSSGGGGSGGGGSGGGGSGGGGSGGGGSGGGGSGGGGSEVQLVESGGGSVQPGGSLTLSCGTSGRTFNVMGWFRQAPGKEREFVAAVRWSSTGIYYTQYADSVKSRFTISRDNAKNTVYLEMNSLKPEDTAVYYCAADTYNSNPARWDGYDFRGQGTLVTVSS	8.21
CD4#8-35GS-IL23R#20 (bispecific antibody, also called BI#44; T023200044) EVQLVESGGGSVQPGGSLTLSCGTSGRTFNVMGWFRQAPGKEREFVAAVRWSSTGIYYTQYADSVKSRFTISRDNAKNTVYLEMNSLKPEDTAVYYCAADTYNSNPARWDGYDFRGQGTLVTVSSGGGGSGGGGSGGGGSGGGGSGGGGSGGGGSGGGGSEVQLVESGGGLVQAGGSLRLSCAASGRTFSSYAMGWFRQAPGKDREFVAAISWIGESTYYADSVKGRFTISRDNAKNTVYLRMNSLKPEDTAVYYCAADLYYTAYVAAADEYDYWGQGTLVTVSS	7.82
